- assayTarget: human VR1 (Homo sapiens, UniProt Q8NER1)
- Construct: expressed in transfected cells
- Sequence (Q8NER1 whole entry): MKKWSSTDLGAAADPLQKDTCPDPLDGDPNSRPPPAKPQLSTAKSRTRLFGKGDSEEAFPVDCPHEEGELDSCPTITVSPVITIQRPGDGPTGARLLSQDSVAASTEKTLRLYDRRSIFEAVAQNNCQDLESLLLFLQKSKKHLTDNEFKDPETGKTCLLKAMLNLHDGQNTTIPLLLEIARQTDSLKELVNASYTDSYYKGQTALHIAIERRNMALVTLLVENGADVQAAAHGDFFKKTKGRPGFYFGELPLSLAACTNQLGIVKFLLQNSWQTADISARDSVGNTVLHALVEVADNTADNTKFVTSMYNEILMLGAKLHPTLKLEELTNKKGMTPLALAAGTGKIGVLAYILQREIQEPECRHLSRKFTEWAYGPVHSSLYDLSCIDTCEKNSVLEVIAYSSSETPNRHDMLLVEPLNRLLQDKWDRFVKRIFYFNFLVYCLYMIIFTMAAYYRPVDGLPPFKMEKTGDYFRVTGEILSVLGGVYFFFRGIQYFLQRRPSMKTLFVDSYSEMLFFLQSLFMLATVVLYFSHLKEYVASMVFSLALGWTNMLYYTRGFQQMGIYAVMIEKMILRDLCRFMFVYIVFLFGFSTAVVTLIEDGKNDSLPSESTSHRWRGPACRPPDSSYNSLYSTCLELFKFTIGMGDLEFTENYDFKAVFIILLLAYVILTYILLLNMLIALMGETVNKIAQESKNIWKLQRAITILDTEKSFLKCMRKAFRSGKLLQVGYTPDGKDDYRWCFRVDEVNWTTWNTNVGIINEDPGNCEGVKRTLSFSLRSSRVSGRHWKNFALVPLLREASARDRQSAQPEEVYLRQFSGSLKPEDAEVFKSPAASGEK
- testName: VR1 capsaicin-based assay (FLIPR calcium influx)
- Format: cell-based
- assayContext: HEK293-EcR cells induced to express human VR1; activation by capsaicin (400 nM); Fluo-4, FLIPR
- Procedure: Human VR1 cloning. Human spinal cord RNA (commercially available from Clontech, Palo Alto, Calif.) was used. […] Generation of inducible cell lines. […] On the day of assay, cells were loaded with Fluo-4 (a calcium-sensitive dye that is commercially available from Molecular Probes, Eugene, Oreg.) and CAP-mediated calcium influx was measured using a Fluorometric Imaging Plate Reader (“FLIPR”) (commercially available from Molecular Devices Corp., Sunnyvale, Calif.) as described below. […]
quantityName: IC50 (nM)

| compound | quantityName | endpointValue |
| --- | --- | --- |
| Cc1ccnnc1N1CCN(C(=O)Nc2ccc(C(C)(C)C)cc2)CC1 [Compound A17] | IC50 | 47.2 |
